We begin with a simple list: items and their reported melting point.

Known results for compounds:
compound: CCOC(=O)c1cn(C(C)(C)C)c2nc(N3CC[C@H](N)C3)c(F)cc2c1=O
melting point: 255 °C
//
compound: CC(C)CC(=O)Nc1cccc(-c2ccnc3c(-c4cccc(Cl)c4)cnn23)c1
melting point: 169 to 171 °C
//
compound: COCC1=C(c2ccccc2)C(=O)N(C(C)(C)C(=O)OC(C)(C)C)CO1
melting point: 65 to 67 °C
//
compound: CCOC(=O)COc1ccc(C(=O)[C@@H](NC(=O)c2ccc(C(=N)NC(=O)OC(C)(C)C)cc2)[C@@H](C)OC(C)(C)C)cc1
melting point: 95 to 97 °C
//
compound: CC(C)CCc1ccc(C#N)c(=O)[nH]1
melting point: 110 to 112 °C
//
compound: CCOC(=O)c1ccc(NC(=O)C=C(c2ccc(Cl)cc2)c2ccc(Cl)cc2)cc1
melting point: 207 to 209 °C

For O=C(O)CCC(O)c1ccc(-c2ccccc2)c(Cl)c1 (centres undefined) the compound record lists melting point as 87 to 88 °C

For "CC1(C)OC(=O)Nc2ccc(-c3cc(Br)cc(OC(F)(F)F)c3)cc21" the compound record lists melting point as 214 to 216 °C

For "CC1(C)C=C(N2CCCS2(=O)=O)c2cc(S(C)(=O)=O)ccc2O1" the compound record lists melting point as 226 to 227 °C
